FYI, the data here is from the supplement of paper PMC9938120.

System: FMOC03 (patient-derived mucinous ovarian cancer cells)
Assay: drug sensitivity score (DSS3, normalised partial AUC of % inhibition dose-response) (DSS (score)); higher = more sensitive (stronger inhibition of viability); extreme values may be limits of the assay
Details: 72 h; library: FO5A; assay format: 2D, 384-well, CellTiter-Glo
Assign yes (1) to entries whose drug sensitivity score meets or exceeds 0.4; assign no (0) to the rest.

Solved entries:
Smiles structure | Discrete label
C[C@]1(c2nc3c(C(N)=O)cccc3[nH]2)CCCN1 | no (0)
C[C@@H](Oc1cc(-c2cnn(C3CCNCC3)c2)cnc1N)c1c(Cl)ccc(F)c1Cl | no (0)
Cc1c(Cn2c(C)nc3c(C(=O)O)cc(N4CCOCC4)cc32)cccc1C(F)(F)F | yes (1)
CCn1c(C(=O)N(C2CC2)C2CC2)cc2c3c(ncn3C)c(Nc3cc(C)n(C)n3)nc21 | yes (1)

In: In plain terms: is recorded drug sensitivity score at least 0.4 for "CC(C)Oc1ccc(C(=O)N[C@H](CNC(=O)CN(C)C)Cc2ccc(-c3cn4cccc([C@H](C)O)c4n3)cc2)cc1Cl" ?
Out: yes (1)

In: In plain terms: is recorded drug sensitivity score at least 0.4 for "CC(C)NC[C@@H](C(=O)N1CCN(c2ncnc3c2[C@H](C)C[C@H]3O)CC1)c1ccc(Cl)cc1" ?
Out: yes (1)

In: In plain terms: is recorded drug sensitivity score at least 0.4 for "CN1CCN(C2CCN(C(=O)Nc3cc(Oc4ccc(NC(=O)C5(C(=O)Nc6ccc(F)cc6)CC5)c(F)c4)ccn3)CC2)CC1" ?
Out: yes (1)

----------
Test system: FMOC25_1 (patient-derived low-grade serous ovarian cancer cells)
Assay: drug sensitivity score (DSS3, normalised partial AUC of % inhibition dose-response) (DSS (score)); higher = more sensitive (stronger inhibition of viability); extreme values may be limits of the assay
Details: 72 h; library: FO4B; assay format: 2D, 384-well, CellTiter-Glo
Assign Fulfilled to entries whose drug sensitivity score meets or exceeds 4; assign Not fulfilled to the rest.

Solved entries:
Smiles structure | Discrete label
O=C(CCCCCCC(=O)Nc1ccccc1)NO | Fulfilled
NC(=O)c1cccc2cn(-c3ccc([C@@H]4CCCNC4)cc3)nc12 | Not fulfilled
CN(C)Cc1ccc(S(=O)(=O)n2ccc(/C=C/C(=O)NO)c2)cc1 | Not fulfilled
Cn1nccc1Nc1nccc(-c2ccn([C@H](CO)c3ccc(Cl)c(F)c3)c(=O)c2)n1 | Fulfilled
CC(C)(C)Cn1c(N)nc2ccc(-c3[nH]c(C(C)(C)C)nc3-c3ccc(F)cc3)nc21 | Not fulfilled

In: In plain terms: is recorded drug sensitivity score at least 4 for "CCC1=C[C@@H]2CN(C1)Cc1c([nH]c3ccccc13)[C@@](C(=O)OC)(c1cc3c(cc1OC)N(C)[C@H]1[C@@](O)(C(=O)OC)[C@H](OC(C)=O)[C@]4(CC)C=CCN5CC[C@]31[C@@H]54)C2" ?
Out: Fulfilled

In: In plain terms: is recorded drug sensitivity score at least 4 for "CNC(=O)c1ccccc1Nc1nc(Nc2ccc3c(c2OC)CCC[C@H](N2CCN(CCO)CC2)C3)ncc1Cl" ?
Out: Fulfilled

----------
Tested on: FMOC27 (patient-derived low-grade serous ovarian cancer cells)
Experiment: drug sensitivity score (DSS3, normalised partial AUC of % inhibition dose-response) (DSS (score)); higher = more sensitive (stronger inhibition of viability); extreme values may be limits of the assay
Details: 72 h; library: FO5A; assay format: 2D, 384-well, CellTiter-Glo
Test readout: drug sensitivity score
Format: numeric value only, no unit, no commentary.

Molecule | drug sensitivity score
C[C@H](Nc1ncnc2nc[nH]c12)c1cc2cccc(Cl)c2c(=O)n1-c1ccccc1 [Duvelisib] | 0.1
Cn1cc(-c2cnn3c(N)c(Br)c([C@@H]4CCCNC4)nc23)cn1 [MK-8776] | 0
CC(=O)N(O)CCCCCNC(=O)CCC(=O)N(O)CCCCCNC(=O)CCC(=O)N(O)CCCCCN [Deferoxamine] | 0

# drug sensitivity score of CCN1CCN(c2ccc(Nc3cc(N(C)C(=O)Nc4c(Cl)c(OC)cc(OC)c4Cl)ncn3)cc2)CC1 [Infigratinib] = 0

# drug sensitivity score of N#CC(c1ccnc(OCc2ccc(CN3CCOCC3)cc2)n1)c1nc2ccccc2s1 (stereo not drawn) [Bentamapimod] = 0

# drug sensitivity score of CC(C)(O)CNc1nc(Nc2ccnc(C(F)(F)F)c2)nc(-c2cccc(C(F)(F)F)n2)n1 [Enasidenib] = 0

# drug sensitivity score of Cc1ccc(-n2nc(C(C)(C)C)cc2NC(=O)Nc2ccc(OCCN3CCOCC3)c3ccccc23)cc1 [Doramapimod] = 0.1

# drug sensitivity score of COCCNCc1ccc(-c2cc3nccc(Oc4ccc(NC(=O)C5(C(=O)Nc6ccc(F)cc6)CC5)cc4F)c3s2)nc1 [Sitravatinib] = 2.5

----------
Tested on: FMOC24 (patient-derived high-grade serous ovarian cancer cells)
Assay: drug sensitivity score (DSS3, normalised partial AUC of % inhibition dose-response) (DSS (score)); higher = more sensitive (stronger inhibition of viability); extreme values may be limits of the assay
Details: 72 h; library: FO5A; assay format: 2D, 384-well, CellTiter-Glo
Assign criterion met to entries whose drug sensitivity score meets or exceeds 3; assign criterion not met to the rest.

Solved entries:
Molecule | Discrete label
COCC[n+]1c2c(n(Cc3cnccn3)c1C)C(=O)c1ccccc1C2=O [Sepantronium bromide] | criterion met
CS(=O)(=O)N1CCN(Cc2cc3nc(-c4cccc5[nH]ncc45)nc(N4CCOCC4)c3s2)CC1 | criterion met
Cc1cnc(NC(=O)Nc2cc(Br)c(C)cc2OC[C@@H]2CNCCO2)cn1 | criterion met
CCN(CC)CCCC(C)Nc1ccnc2cc(Cl)ccc12 (configuration not stated) | criterion met
Cc1nc2cccc(N)c2c(=O)n1C1CCC(=O)NC1=O (configuration not stated) | criterion not met

Now let's try a different one.
In: In plain terms: is recorded drug sensitivity score at least 3 for "CNC(=O)c1ccccc1Sc1ccc2c(/C=C/c3ccccn3)n[nH]c2c1" ?
Out: criterion not met

----------
Test system: FMOC09 (patient-derived high-grade serous ovarian cancer cells)
Assay: drug sensitivity score (DSS3, normalised partial AUC of % inhibition dose-response) (DSS (score)); higher = more sensitive (stronger inhibition of viability); extreme values may be limits of the assay
Settings: 72 h; library: FO5A; assay format: 2D, 384-well, CellTiter-Glo
Test readout: drug sensitivity score

Smiles structure | drug sensitivity score
COc1cc2c(cc1OC(C)C)[C@H](c1ccc(Cl)cc1)N(c1ccc(N(C)C[C@H]3CC[C@H](N4CCN(C)C(=O)C4)CC3)cc1)C(=O)C2 | 5.9

# drug sensitivity score of "Cc1cccc(-c2[nH]c(CNc3ccccc3F)nc2-c2ccc3ncnn3c2)n1" = 0

# drug sensitivity score of "COc1cccc2c1C(=O)c1c(O)c3c(c(O)c1C2=O)C[C@@](O)(C(=O)CO)C[C@@H]3O[C@H]1C[C@H](N)[C@H](O)[C@H](C)O1" = 6.5

# drug sensitivity score of "CCn1c(-c2nonc2N)nc2cnc(Oc3cccc(NC(=O)c4ccc(OCCN5CCOCC5)cc4)c3)cc21" = 2.3

----------
System: FMOC28 (patient-derived low-grade serous ovarian cancer cells)
Assay: drug sensitivity score (DSS3, normalised partial AUC of % inhibition dose-response) (DSS (score)); higher = more sensitive (stronger inhibition of viability); extreme values may be limits of the assay
Settings: 72 h; library: FO5A; assay format: 2D, 384-well, CellTiter-Glo
Entries and their measured drug sensitivity score follow.
Format: numeric value only, no unit, no commentary.

# drug sensitivity score of "O[C@H]1CC[C@H](Nc2ncc3nc(Nc4c(F)cc(F)cc4F)n([C@H]4CCOC4)c3n2)CC1" = 0

# drug sensitivity score of "COc1cc(OC)cc(N(CCNC(C)C)c2ccc3ncc(-c4cnn(C)c4)nc3c2)c1" = 0

# drug sensitivity score of "NC1(c2ccc(-c3nc4ccn5c(=O)[nH]nc5c4cc3-c3ccccc3)cc2)CCC1" = 5.5

# drug sensitivity score of O=c1[nH]c(C2CCCN2)nc2c1oc1ccc(Cl)cc12 (configuration not stated) = 4.4

# drug sensitivity score of Cc1nc2cccc(N)c2c(=O)n1C1CCC(=O)NC1=O (configuration not stated) = 2.5

----------
Test system: FMOC28
Test: drug sensitivity score (DSS3, normalised partial AUC of % inhibition dose-response) (DSS (score)); higher = more sensitive (stronger inhibition of viability); extreme values may be limits of the assay
Conditions: 72 h; library: FO5A; assay format: 2D, 384-well, CellTiter-Glo
Assign yes to entries whose drug sensitivity score meets or exceeds 2; assign no to the rest.

Solved entries:
Molecule | Discrete label
CC[C@H](C)C(=O)O[C@H]1C[C@@H](C)C=C2C=C[C@H](C)[C@H](CC[C@@H]3C[C@@H](O)CC(=O)O3)[C@H]21 | no
CC[C@@H]1CN(C(=O)NCC(F)(F)F)C[C@@H]1c1cnc2cnc3[nH]ccc3n12 | yes
COc1cc(Nc2ncc(F)c(Nc3ccc4c(n3)N(COP(=O)(O)O)C(=O)C(C)(C)O4)n2)cc(OC)c1OC | no
Cc1ccc(F)c(NC(=O)Nc2ccc(-c3cccc4[nH]nc(N)c34)cc2)c1 | no
CC(C)NC(=O)COc1cccc(-c2nc(Nc3ccc4[nH]ncc4c3)c3ccccc3n2)c1 | yes
C=CCN(/C=C1/C(=O)O[C@H](COC)[C@@]2(C)C1=C(O)C(=O)C1=C2[C@H](OC(C)=O)C[C@]2(C)C(=O)CC[C@@H]12)CC=C | no
CC[C@@](C)(Nc1ccnc(-c2c[nH]c3ncccc23)n1)C(=O)NCC(F)(F)F | no
CCC1(c2ccc(N)cc2)CCC(=O)NC1=O (configuration not stated) [Aminoglutethimide] | no

In: In plain terms: is recorded drug sensitivity score at least 2 for "CCN1CCN(c2ccc(Nc3cc(N(C)C(=O)Nc4c(Cl)c(OC)cc(OC)c4Cl)ncn3)cc2)CC1" ?
Out: no

In: In plain terms: is recorded drug sensitivity score at least 2 for COc1ccc(COc2cc3oc(=O)c4cc(C(C)O)ccc4c3cc2OC)cc1 (configuration not stated) ?
Out: no

In: In plain terms: is recorded drug sensitivity score at least 2 for "CCn1c(C(=O)N(C2CC2)C2CC2)cc2c3c(ncn3C)c(Nc3cc(C)n(C)n3)nc21" ?
Out: no

In: In plain terms: is recorded drug sensitivity score at least 2 for "CC(C)N(CCCNC(=O)Nc1ccc(C(C)(C)C)cc1)C[C@H]1O[C@@H](n2cc(Br)c3c(N)ncnc32)[C@H](O)[C@@H]1O" ?
Out: yes

In: In plain terms: is recorded drug sensitivity score at least 2 for CNC(=O)c1ccc(N2C(=S)N(c3ccc(C#N)c(C(F)(F)F)c3)C(=O)C2(C)C)cc1F [Enzalutamide] ?
Out: no

In: In plain terms: is recorded drug sensitivity score at least 2 for "CNC(=O)c1cc(COc2nnc(Nc3ccc(Cl)cc3)c3ccoc23)ccn1" ?
Out: no

In: In plain terms: is recorded drug sensitivity score at least 2 for "C[C@@H]1C[C@H]2[C@@H]3CCC4=CC(=O)C=C[C@]4(C)[C@@]3(F)[C@@H](O)C[C@]2(C)[C@@]1(O)C(=O)CO" ?
Out: no

In: In plain terms: is recorded drug sensitivity score at least 2 for "Clc1ccc(Nc2nnc(Cc3ccncc3)c3ccccc23)cc1" ?
Out: yes

In: In plain terms: is recorded drug sensitivity score at least 2 for "CC(C)N(C[C@H]1O[C@@H](n2cnc3c(N)ncnc32)[C@H](O)[C@@H]1O)[C@H]1C[C@@H](CCc2nc3cc(C(C)(C)C)ccc3[nH]2)C1" ?
Out: yes

In: In plain terms: is recorded drug sensitivity score at least 2 for "Cc1ccc(NC(=O)c2ccc(CN3CCN(C)CC3)cc2)cc1Nc1nc(-c2cccnc2)cs1" ?
Out: no

In: In plain terms: is recorded drug sensitivity score at least 2 for "C[C@H]1C[C@@H](n2c(Nc3ccc(OC(F)(F)F)cc3)nc3cc(CCC(=O)O)ccc32)CC(C)(C)C1" ?
Out: no

In: In plain terms: is recorded drug sensitivity score at least 2 for "CC[C@H](Nc1ncnc2[nH]cnc12)c1nc2cccc(F)c2c(=O)n1-c1ccccc1" ?
Out: yes

In: In plain terms: is recorded drug sensitivity score at least 2 for "CN1CCC(COc2cnc(-c3cccc(Cn4nc(-c5cccc(C#N)c5)ccc4=O)c3)nc2)CC1" ?
Out: yes

In: In plain terms: is recorded drug sensitivity score at least 2 for O=C1NC(=O)[C@@H](c2cn3c4c(cccc24)CCC3)[C@@H]1c1c[nH]c2ccccc12 [Tivantinib] ?
Out: yes

In: In plain terms: is recorded drug sensitivity score at least 2 for "Nc1nc(F)nc2c1ncn2[C@@H]1O[C@H](CO)[C@@H](O)[C@@H]1O" ?
Out: no

In: In plain terms: is recorded drug sensitivity score at least 2 for "Cn1cc(-c2cnn3c(N)c(Br)c([C@@H]4CCCNC4)nc23)cn1" ?
Out: yes

In: In plain terms: is recorded drug sensitivity score at least 2 for "CCc1nc(C(N)=O)c(Nc2ccc(N3CCC(N4CCN(C)CC4)CC3)c(OC)c2)nc1NC1CCOCC1" ?
Out: no

In: In plain terms: is recorded drug sensitivity score at least 2 for "C[C@@H]1CN(CC(=O)Nc2ccc3c(c2)Cc2cccc(-c4cc(=O)cc(N5CCOCC5)o4)c2S3)C[C@H](C)O1" ?
Out: no

In: In plain terms: is recorded drug sensitivity score at least 2 for "CNC(=O)c1ccccc1Sc1ccc2c(/C=C/c3ccccn3)n[nH]c2c1" ?
Out: no
